# measured on: UniProt:P05129
# assay: Displacement of [3H]PDBu from PKCgamma C1B domain
Hi there, I'd appreciate the recorded Ki for every entry that follows.
One number for each entry, in nM.

{"smiles representation": "CC(C)[C@H]1C(=O)N[C@H](CO)Cc2c[nH]c3cccc(c23)N1C", "measured on": "UniProt:P05129", "value units": "nM", "Ki": 59}
{"smiles representation": "CCCCCCn1cc2c3c(cccc31)N(C)[C@@H](C(C)C)C(=O)N[C@H](CO)C2", "measured on": "UniProt:P05129", "value units": "nM", "Ki": 39}

Input CCCCCCn1cc2c3c(cccc31)N(C)[C@@H](C(C)C)C(=O)N[C@H](CO)CC2 . Output Ki: 420
